B1: library; numbered along this chain (parent)
chain: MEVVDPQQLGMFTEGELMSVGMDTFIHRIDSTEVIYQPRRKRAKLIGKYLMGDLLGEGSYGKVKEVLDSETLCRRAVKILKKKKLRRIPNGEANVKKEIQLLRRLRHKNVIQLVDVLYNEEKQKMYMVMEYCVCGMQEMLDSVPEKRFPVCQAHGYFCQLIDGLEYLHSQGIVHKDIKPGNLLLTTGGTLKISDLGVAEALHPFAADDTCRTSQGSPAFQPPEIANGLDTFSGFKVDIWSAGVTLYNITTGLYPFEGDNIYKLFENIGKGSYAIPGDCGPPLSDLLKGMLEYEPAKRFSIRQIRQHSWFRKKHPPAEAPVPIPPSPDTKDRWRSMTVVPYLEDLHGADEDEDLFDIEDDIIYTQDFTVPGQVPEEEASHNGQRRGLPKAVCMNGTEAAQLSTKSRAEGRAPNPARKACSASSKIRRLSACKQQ

variants of: B1; assay: STK11 functional score (HeLa growth suppression), rescaled enrichment; synonymous median = 1, nonsense median = 0 (normalised score); details: with HeLa; variant type: missense
Measured STK11 functional score, listed per entry.
REPORTED_PROPERTY: STK11 functional score

- S404W: 1.43
- G279A: 0.991
- L113I: 0.313
- V143Q: 0.751
- D176V: 0.0775
- R40P: 1.17
- P373A: 1.08
- K62S: 1.39
- P319A: 1.37
- Y131R: 0.218
- M335V: 1.42
- S240W: -0.126
- G91I: 1.63
- P339N: 0.366
- S378M: 1.11
- M335I: 1.18
- K388E: 1.42
- R405F: 1.59
- S404Y: 0.966
- V150W: 0.631
- P179A: 0.764
- T244H: 0.0105
